- tested_system: Coagulation factor IX (Homo sapiens, UniProt P00740)
- Sequence (P00740 47-191 limits assumed): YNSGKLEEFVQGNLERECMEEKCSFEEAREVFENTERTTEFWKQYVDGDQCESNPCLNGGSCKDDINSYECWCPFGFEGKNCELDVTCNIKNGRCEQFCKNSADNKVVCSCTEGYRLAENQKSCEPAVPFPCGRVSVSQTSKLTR
- Sequence (P00740 227-461 limits assumed): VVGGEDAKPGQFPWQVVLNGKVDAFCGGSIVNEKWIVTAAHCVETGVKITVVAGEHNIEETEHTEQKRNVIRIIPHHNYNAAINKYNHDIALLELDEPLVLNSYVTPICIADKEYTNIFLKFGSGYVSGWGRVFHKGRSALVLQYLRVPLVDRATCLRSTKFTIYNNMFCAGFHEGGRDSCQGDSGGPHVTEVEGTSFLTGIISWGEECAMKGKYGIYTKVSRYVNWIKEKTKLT
- test: Inhibition of human factor 9a using CH3SO2-DCHG-Gly-Arg-AFC.AcOH as substrate preinubated for 30 mins followed by substrate addition measured after 1 hr by fluorescence assay
readout_label: IC50 (nM)
Kindly provide the numeric value in nM only, without the unit symbol.

Asked: Report IC50 for Cc1ncn(-c2cc(Cl)c(C(=O)NC[C@@H](c3cccc(F)c3)c3ccc4[nH]c(C)nc4c3)c(Cl)c2)n1 please.
Given back: 9.99

FYI, the data here is from ChEMBL document CHEMBL3774356.
